Items are presented alongside their recorded selectivity ratio.
PROTOCOL: Selective index, ratio of CC50 for MDCK cells to IC50 for Hantaan 76-118
Format: toxicity
PROTOCOL_CONDITIONS: dog, read-out: Ratio CC50/IC50
Returns: the value as a bare number; no unit string appended.

INPUT: # get_value(readout='selectivity ratio', item= CC(C)N1CC23C=CC(C)(O2)C(C(=O)N/N=C2\C[C@H]4CC[C@]2(C)C4(C)C)C3C1=O (mixture of isomers) )
OUTPUT: 3

INPUT: // lookup selectivity ratio for COc1ccc(N2CC34C=CC(C)(O3)C(C(=O)N/N=C3\C(C)(C)[C@H]5CC[C@]3(C)C5)C4C2=O)cc1 (mixture of isomers)
OUTPUT: 9

INPUT: # lookup: selectivity ratio of CCCCN1CC23C=CC(C)(O2)C(C(=O)N/N=C2\C[C@H]4CC[C@]2(C)C4(C)C)C3C1=O (mixture of isomers)
OUTPUT: 9
